test: Cytotoxicity concurrent with HCMV secondary assay; assay type: cell-based; details: human
Reported endpoint: CC50 (µM)
Lab book: enter the figure in µM, no units written.

The compound Nc1nc(O)c2ncn(COC(CO)CO)c2n1 [Ganciclovir, ganciclovir, reference compound] showed CC50 equal to 20

---

system: Human herpes virus 8 strain BCBL-1; assay: Human herpes virus 8 primary assay, BCBL-1 cells; format: cell-based, Human Herpesvirus 8; conditions: Human gammaherpesvirus 8, BCBL1, strain BCBL-1, BCBL-1 cells
Reported endpoint: pEC50
Value format note: pEC50 is -log10 of concentration (mol/L); just state the number.

The compound Fc1ccc2c(c1)nn1cnc(NC3CCOCC3)cc21 showed pEC50 equal to 4.66

---

tested on: Epstein-Barr virus Akata strain; assay: Epstein-Barr primary assay, Akata strain, Akata cells; format: cell-based; conditions: human gammaherpesvirus 4; Epstein-Barr primary assay, Akata strain, Akata cells; read-out: EC50
Reported endpoint: EC50 (µM)
Lab book: enter the figure in µM, no units written.

Compound: NCC1CCC(Nc2cc3c4ccc(F)cc4nn3cn2)CC1 (stereo not drawn)
Target or test system: Epstein-Barr virus Akata strain
EC50 [µM]: 1.78

The compound CNC1CCC(Nc2cc3c4ccc(F)cc4nn3cn2)CC1 (stereo not drawn) showed EC50 equal to 8.32

The compound Fc1ccc2c(c1)nn1cnc(NC3CCCOCC3)cc21 (stereo not drawn) showed EC50 equal to 8.73

---

molecular target: CDK9/cyclin T1 (Homo sapiens (Human), UniProt P50750); assay: Kinase activity assay, CDK9/cyclin T1; assay type: biochemical; details: Table 3.1.2; 10 μM ATP; 10-dose triplicate starting at 9.827 μM; unit not printed (table 3.1.1 prints M); read-out: CDK9/cyclin T1 kinase activity (IC50)
Sequence (P50750 whole entry): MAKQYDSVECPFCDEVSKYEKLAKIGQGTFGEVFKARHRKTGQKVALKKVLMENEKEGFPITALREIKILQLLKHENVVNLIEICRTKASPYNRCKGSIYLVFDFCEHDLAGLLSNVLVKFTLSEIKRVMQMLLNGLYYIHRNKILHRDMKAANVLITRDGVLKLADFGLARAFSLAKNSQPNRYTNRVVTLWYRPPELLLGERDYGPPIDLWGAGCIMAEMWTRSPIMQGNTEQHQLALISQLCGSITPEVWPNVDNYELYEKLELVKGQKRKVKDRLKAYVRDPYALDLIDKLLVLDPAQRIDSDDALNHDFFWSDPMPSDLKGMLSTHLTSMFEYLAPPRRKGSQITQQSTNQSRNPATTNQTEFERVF
Sequence (O60563 whole entry partner): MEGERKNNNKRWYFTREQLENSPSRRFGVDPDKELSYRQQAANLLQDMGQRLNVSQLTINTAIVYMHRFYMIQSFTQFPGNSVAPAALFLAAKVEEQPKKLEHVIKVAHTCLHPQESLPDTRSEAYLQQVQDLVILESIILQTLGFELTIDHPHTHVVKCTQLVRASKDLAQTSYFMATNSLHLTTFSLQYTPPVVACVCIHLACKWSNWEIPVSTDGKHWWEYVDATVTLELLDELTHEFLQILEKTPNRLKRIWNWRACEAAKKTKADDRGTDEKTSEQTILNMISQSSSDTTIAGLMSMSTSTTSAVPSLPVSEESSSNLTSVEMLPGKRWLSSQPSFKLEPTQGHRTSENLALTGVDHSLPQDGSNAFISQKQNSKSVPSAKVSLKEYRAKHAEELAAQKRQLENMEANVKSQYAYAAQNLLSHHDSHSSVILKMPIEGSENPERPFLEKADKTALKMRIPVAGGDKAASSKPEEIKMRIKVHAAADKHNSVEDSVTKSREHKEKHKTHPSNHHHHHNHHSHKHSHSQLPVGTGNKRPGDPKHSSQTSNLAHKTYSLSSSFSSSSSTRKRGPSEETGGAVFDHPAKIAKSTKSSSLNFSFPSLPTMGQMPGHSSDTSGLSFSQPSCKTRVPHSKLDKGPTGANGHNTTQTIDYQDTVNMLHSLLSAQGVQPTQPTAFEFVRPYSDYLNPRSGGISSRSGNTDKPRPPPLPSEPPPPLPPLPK
Reported endpoint: IC50 (nM)
Lab book: enter the figure in nM, no units written.

The compound Fc1ccc2c(c1)nn1cnc(NC3CCOCC3)cc21 showed IC50 equal to 1680

---

system: HFF cells; experiment: Cytotoxicity concurrent with HCMV AD169 primary assay; assay type: cell-based, human; settings: human
Reported endpoint: CC50 (µM)
Lab book: enter the figure in µM, no units written.

The molecule NC(=O)CN1CCC(Nc2cc3c4ccc(F)cc4nn3cn2)CC1 showed CC50 equal to 26.9

---

experiment: Cytotoxicity concurrent with Adenovirus primary assay; format: cell-based; settings: human
Label key: 1 means CC50 under 20 µM; -1 means CC50 of 20 µM or more.

Incoming: Strictly below 20 µM in CC50? CN(C(=O)OC(C)(C)C)C1CCC(Nc2cc3c4ccc(F)cc4nn3cn2)CC1 (centres unmarked) [VKT-005]
Outgoing: 1

Incoming: Strictly below 20 µM in CC50? CN(C)CC1CCC(Nc2cc3c4ccc(F)cc4nn3cn2)CC1 (centres unmarked) [VKT-008]
Outgoing: -1

Incoming: Strictly below 20 µM in CC50? NCC1CCC(Nc2cc3c4ccc(F)cc4nn3cn2)CC1 (centres unmarked) [VKT-002]
Outgoing: -1

Incoming: Strictly below 20 µM in CC50? CN1CCC(Nc2cc3c4ccc(F)cc4nn3cn2)CC1 [VKT-023]
Outgoing: -1

Incoming: Strictly below 20 µM in CC50? CNC1CCC(Nc2cc3c4ccc(F)cc4nn3cn2)CC1 (centres unmarked) [VKT-006]
Outgoing: -1
